Exercise: state measured inhibition for each of the compounds provided.
- test: clotrimazole potentiators killing Candida biofilms, primary screen, with clotrimazole, Alamar Blue (AID 834);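 further: preformed 24 hr biofilms exposed to compound for 48 hr; 0% = biofilm without compound and 100% = blank killed by clotrimazole plus chlorhexidine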
- test-context: C. albicans biofilm + clotrimazole, at 6 µM, stronger effect = higher value
In all, about 85,000 compounds went through this assay and about 120 (0.14%) were called active. Many of the other results were omitted from the sample, so actives are more common in it than they were.
Numbers only, in %.

compound	inhibition / %
COC(=O)c1ccccc1Sc1c(/C=N/OCc2ccc(Cl)cc2)c(C(F)(F)F)nn1C	-1.64

Please look at the items below and tell me inhibition for each one, in order.
1. O=C(Cc1ccccc1)Nc1c(C(=O)N2CCCCCC2)cnn1-c1ccccc1
2. O=C1Nc2cc(Cl)c(Cl)cc2N(O)N1c1cc(Cl)cc(Cl)c1
3. CS(=O)(=O)Nc1ccc(C(=O)N2CCCC2)cc1
4. CC(C)(C)NC(=O)Cn1c(SCC(=O)Nc2nccs2)nc2ccccc21
5. CCOc1ccccc1C(=O)NC1CC2CCCC(C1)N2Cc1ccccc1 (stereo unspecified)

1. -2.24
2. -1.77
3. 6.23
4. -3.28
5. 1.7

###

- test: clotrimazole potentiators killing Candida biofilms, primary screen, with clotrimazole, Alamar Blue (AID 834)
- test-context: C. albicans biofilm + clotrimazole, at 6 µM, stronger effect = higher value
Screen size: about 85,000 compounds; about 120 (0.14%) were called active. Shown is part of a subset that was picked to be rich in actives.
I'd appreciate it if you could supply inhibition values for the items below.
Answers are plain numbers, in %.

Below: 8 compounds and their reported inhibition.
compound	inhibition [%]
Cc1ccc(S(=O)(=O)NCC(C)NS(C)(=O)=O)cc1 (stereo not given)	3.23
CC(=O)N(C)c1ccc(NC(=O)C(F)(F)F)cc1	0.77
CC(C)N1C(=S)SC(C)(C)C1n1oc(=O)n(-c2ccc(Cl)c(Cl)c2)c1=O (stereo not given)	8.09
C=CCNC(=O)c1cc2nc(C3CC3)cc(C(F)F)n2n1	3.65
CCc1cccc(C)c1N(C(=O)Cn1c(CO)nc2ccccc21)C(C)COC (stereo not given)	2.34
COC(=O)c1sccc1-n1cccc1C(=O)C(=O)N1CCCCC1	6.37
CC1=NN(/C(=N\c2nnc(C)s2)Nc2ccccc2)[C@H](c2ccc(C)cc2)S1	4.3
CCN1C(=O)/C(=C2/Sc3ccc(OC)cc3N2C)SC1=Nc1ccc(C)cc1	-3.03

Please give inhibition, item by item, for the list that follows.
1. CCn1c(SCC(=O)Nc2ccc(OC)c(OC)c2)nnc1-c1c[nH]c2ccccc12
2. COc1ccc(C2=NOC3(CC(=O)N(c4ccc(Cl)cc4)C3=O)C2)c(OC)c1 (stereo not given)

1: 2.3; 2: 8.25

###

- test: clotrimazole potentiators killing Candida biofilms, primary screen, with clotrimazole, Alamar Blue (AID 834)
- test-context: C. albicans biofilm + clotrimazole, at 6 µM, stronger effect = higher value
Hit rate of the full screen: of about 85,000 compounds, about 120 (0.14%) were called active. Many of the other results were omitted from the sample, so actives are more common in it than they were.
Kindly supply the reported inhibition values for the records listed here.
Numbers only, in %.

molecule	result-unit	inhibition
COc1cc(C)c(C(C)C)cc1S(=O)(=O)n1ccnc1	%	1.15

Can you give me inhibition for all of these, one by one?
1. CN1C(=O)C(CC(N)=O)N(NC(=O)c2ccc(Cl)cc2)C1=S (stereo not given)
2. CCOc1ccc(S(=O)(=O)NCCSc2ccccc2)cc1
3. O=C(CCCn1c(SCC(=O)c2ccccc2)nc2ccccc2c1=O)NCC1CCCO1 (stereo not given)

[7.03, -7.35, 0.02]

Endpoint output: inhibition of `Cc1ccc(NC(=O)N2CCC(c3nc4c(nnn4Cc4c(F)cccc4Cl)c(=O)[nH]3)CC2)cc1` . Value? 5.75

###

I'd appreciate it if you could supply inhibition values for the items below.
- test: clotrimazole potentiators killing Candida biofilms, primary screen, with clotrimazole, Alamar Blue (AID 834)
- test-context: C. albicans biofilm + clotrimazole, at 6 µM, stronger effect = higher value
Hit rate of the full screen: of about 85,000 compounds, about 120 (0.14%) were called active. What follows is part of a selection rich in actives, with near analogues and random picks from the rest.
Give bare numbers, in %.

molecule	assay-endpoint	experimental-result
Cc1ccc(CN(N=Nc2nonc2N)c2nonc2N)c(C)c1	inhibition	1.82
COC(=O)c1ccccc1NC(=O)CN(Cc1ccc(Cl)cc1)S(C)(=O)=O	inhibition	9.25
COC(=O)c1ccc(CSc2nnc(NC(C)C)s2)cc1	inhibition	8.02
COc1ccc(CN(CC(=O)NC2CCCC2)C(=O)CCC(=O)Nc2cc(C)on2)cc1	inhibition	-2.23
CCC(C)NC(=O)c1cc(Cl)ccc1OC (stereo unspecified)	inhibition	3.81
COCCNC(=O)Cn1cc(C(=O)c2cccs2)c2ccccc21	inhibition	-3
COc1c(F)c(F)c(C(=O)O)c(Nc2ccccc2C)c1F	inhibition	0.13
Cc1ccc(C(c2nnnn2CS(=O)(=O)c2ccc(C)cc2)N2CCC(C(N)=O)CC2)cc1 (stereo unspecified)	inhibition	-1.5
COc1ccc(Nc2cc(=O)oc3ccccc23)cc1	inhibition	5.52
C=CCOC(=O)C1=C(C)NC(SCC(=O)OCC)=C(C#N)C1c1ccc(C)cc1 (stereo unspecified)	inhibition	3.88

Now take the following molecule into account.
What value of measured inhibition is listed for `COc1ccccc1-c1nc(C#N)c(N2CCC(C(N)=O)CC2)o1` ? 7.17

###

- test: clotrimazole potentiators killing Candida biofilms, primary screen, with clotrimazole, Alamar Blue (AID 834);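 further: preformed 24 hr biofilms exposed to compound for 48 hr; 0% = biofilm without compound and 100% = blank killed by clotrimazole plus chlorhexidine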
- test-context: C. albicans biofilm + clotrimazole, at 6 µM, stronger effect = higher value
Out of some 85,000 compounds screened, about 120 (0.14%) were called active. For the sample, actives were picked, then their nearest neighbours and some compounds at random.
assay-endpoint: inhibition (%)
Give bare numbers, in %.

molecule	experimental-result
Cc1ccc(-n2ccc(=O)c(C(=O)O)n2)cc1	2.26
COc1ccc(C2C(C#N)=C(/N=C/N3CCOCC3)OC3=C2C(=O)CC(C)(C)C3)cc1OC (stereo unspecified)	13.5
Cc1ccc(S(=O)(=O)N(c2cccc(C)c2)C2CCS(=O)(=O)C2)cc1 (stereo unspecified)	11.2
CCn1c(Cc2cccs2)nnc1SCC(=O)c1ccc(C)cc1	5.86

Hi, could you look up inhibition for each item in my list?
1. Cc1ccccc1-n1c(C)cc(/C=C2\NC(=O)NC2=O)c1C
2. CC(C)CC(=O)Nc1cc(C(F)(F)F)ccc1N1CCOCC1
3. CC(C)(C)c1ccc(OC2=CS(=O)(=O)c3ccccc32)cc1
4. O=C(COC(=O)c1n[nH]c2ccccc12)NCc1ccccc1

[2.93, 1.97, 1.17, 1.24]

For every item below, please supply its inhibition.
1. Cc1c(C=O)c2ccccn2c1C(=O)c1ccncc1
2. O=P(O)(CP(=O)(c1ccccc1)c1ccccc1)c1ccccc1O

1. -3.35
2. 7.77

Recorded inhibition for `C=CCn1c(-c2ccc3[nH]c(C)c(C)c3c2)n[nH]c1=S` , please? 0.31

###

- test: clotrimazole potentiators killing Candida biofilms, primary screen, with clotrimazole, Alamar Blue (AID 834);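 further: preformed 24 hr biofilms exposed to compound for 48 hr; 0% = biofilm without compound and 100% = blank killed by clotrimazole plus chlorhexidine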
- test-context: C. albicans biofilm + clotrimazole, at 6 µM, stronger effect = higher value
The campaign covered roughly 85,000 compounds. About 120 (0.14%) were called active. The entries come from a sample that favours actives as a whole.
assay-endpoint: inhibition

Here's what some known entries look like.
compound	experimental-result
Cc1cc(C)c(OCC(=O)N/N=C/c2ccco2)c(C)c1	-5.16% (inactive)
Clc1cccc(N=C2NN=C(c3ccc4c(c3)OCCO4)CS2)c1	1.81% (inactive)
CCCc1nc(NCc2ccc3c(c2)OCO3)c2nnn(Cc3ccccc3Cl)c2n1	7.6% (inactive)
CCCCNS(=O)(=O)c1ccc(S(=O)(=O)n2cnc3ccccc32)cc1	0.82% (inactive)
Cc1nnc(SCC(=O)Nc2ncc3c(n2)CC(C)(C)CC3=O)s1	3.95% (inactive)
Cc1ccccc1CSCCNC(=O)c1ccc(Cl)c(S(=O)(=O)N2CCOCC2)c1	3.05% (inactive)
CCC(C)NC(=O)c1ccccc1NC(=O)c1ccccc1N(C)S(C)(=O)=O (configuration not stated)	-0.05% (inactive)
CCOC(=O)c1cnc(SCC(=O)Nc2ccccc2C(=O)OC)nc1N	4.94% (inactive)

For every record below, what is its inhibition?
1. Cc1ccc(Cc2c(C)nc3nc(SCC(=O)NCCN4CCOCC4)nn3c2C)cc1
2. O=C(c1ccc(CN2CCOCC2)cc1)N1CCN(c2ccccc2F)CC1
3. CC(C)OC(=O)c1c(NC(=O)c2ccco2)sc2c1CCCC2
4. OC(COc1ccc2c(c1)CCC2)CN1CCN(c2cccc(Cl)c2)CC1 (configuration not stated)
5. COc1ccccc1C(c1nnnn1C(C)(C)C)N1CCN(Cc2ccccc2)CC1 (configuration not stated)

1. -3.03% (inactive)
2. 3.38% (inactive)
3. 4.89% (inactive)
4. 3.52% (inactive)
5. -0.02% (inactive)

###

- test: clotrimazole potentiators killing Candida biofilms, primary screen, with clotrimazole, Alamar Blue (AID 834);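 further: preformed 24 hr biofilms exposed to compound for 48 hr; 0% = biofilm without compound and 100% = blank killed by clotrimazole plus chlorhexidine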
- test-context: C. albicans biofilm + clotrimazole, at 6 µM, stronger effect = higher value
Out of some 85,000 compounds screened, about 120 (0.14%) were called active. The entries come from a sample that favours actives as a whole.
Hi there, I'd appreciate the recorded inhibition for every entry that follows.
Numbers only, in %.

Would you please look over these solved cases?
compound	result-unit	experimental-result
CCOC(=O)C1CSC(CC(=O)Nc2ccc(OCC)cc2)C(=O)N1 (stereo unspecified)	%	3.56
COc1ccc(Br)cc1CN1CCN(C(=O)c2cccc(OC)c2OC)CC1	%	-0.18
CCOC(=O)c1c(NC(C)=O)sc2c(O)c(Br)ccc12	%	7.32
CCOc1cccc(C(=O)Nc2nnc(-c3cccs3)s2)c1	%	5.64
O=C1N=C(N2CCCC2)S/C1=C\c1cccc(Br)c1	%	2.13

State the recorded inhibition for every item in the following list.
1. CC(C)NC(=O)CSc1nnc(COc2ccccc2Cl)o1
2. COc1ccc(S(=O)(=O)Nc2ccc3oc(C)c(C(C)=O)c3c2)cc1
3. Cc1cccc(N2CCN(C(=O)c3cnn4c(C(F)F)cc(-c5ccccc5)nc34)CC2)c1C
4. O=C(NCc1ccccn1)c1cc(-c2ccccc2Cl)on1
5. O=C(NCc1ccccc1)[C@@H]1CSC2c3ccccc3C(=O)N21 (stereo partly specified)
6. COc1ccc(CN2CCCCC2C)cc1OC (stereo unspecified)

1. 5.07
2. -2.16
3. 7.54
4. -4.95
5. -0.55
6. 0.38
